meta.source: patent US10077237B2

molecular target: recombinant human AMPK complex, containing α2β1γ2 (Homo sapiens, UniProt P54646+Q9Y478); construct: hsAMPKα2-552-His, hsAMPKβ1-2-270 and hsAMPKγ-2-569 respectively; hsAMPKβ1-2-270; hsAMPKγ-2-569; His (C); made in house; host or cells: Spodoptera frugiperda Sf21 (baculovirus); assay: AMPK in vitro activation assay (HTRF); assay type: biochemical; conditions: potentiation of AMPK activity as percent over the basal signal (without compound)
Sequence (P54646 2-552): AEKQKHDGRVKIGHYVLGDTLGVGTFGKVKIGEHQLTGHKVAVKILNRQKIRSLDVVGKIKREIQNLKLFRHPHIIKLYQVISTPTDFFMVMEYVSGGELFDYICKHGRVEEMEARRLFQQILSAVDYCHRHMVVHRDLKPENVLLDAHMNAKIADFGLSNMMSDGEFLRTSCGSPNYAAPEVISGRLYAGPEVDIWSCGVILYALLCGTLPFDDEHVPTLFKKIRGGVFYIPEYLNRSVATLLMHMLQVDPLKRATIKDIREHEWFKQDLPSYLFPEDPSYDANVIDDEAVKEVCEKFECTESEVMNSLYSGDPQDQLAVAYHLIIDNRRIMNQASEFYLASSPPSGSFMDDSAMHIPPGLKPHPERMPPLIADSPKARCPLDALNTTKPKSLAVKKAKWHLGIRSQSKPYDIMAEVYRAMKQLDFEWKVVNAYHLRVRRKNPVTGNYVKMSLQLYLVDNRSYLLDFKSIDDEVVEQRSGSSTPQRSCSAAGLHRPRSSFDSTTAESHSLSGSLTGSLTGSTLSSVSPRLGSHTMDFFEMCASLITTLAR
Sequence (Q9Y478 2-270): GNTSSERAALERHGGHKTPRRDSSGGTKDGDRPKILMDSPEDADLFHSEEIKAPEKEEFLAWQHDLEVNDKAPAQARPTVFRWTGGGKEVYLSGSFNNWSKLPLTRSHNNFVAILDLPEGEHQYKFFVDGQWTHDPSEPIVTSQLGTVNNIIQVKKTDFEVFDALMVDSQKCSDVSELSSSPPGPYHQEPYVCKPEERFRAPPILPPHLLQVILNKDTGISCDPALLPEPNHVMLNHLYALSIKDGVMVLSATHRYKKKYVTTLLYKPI
Sequence (Q9UGJ0 2-569 partner limits assumed): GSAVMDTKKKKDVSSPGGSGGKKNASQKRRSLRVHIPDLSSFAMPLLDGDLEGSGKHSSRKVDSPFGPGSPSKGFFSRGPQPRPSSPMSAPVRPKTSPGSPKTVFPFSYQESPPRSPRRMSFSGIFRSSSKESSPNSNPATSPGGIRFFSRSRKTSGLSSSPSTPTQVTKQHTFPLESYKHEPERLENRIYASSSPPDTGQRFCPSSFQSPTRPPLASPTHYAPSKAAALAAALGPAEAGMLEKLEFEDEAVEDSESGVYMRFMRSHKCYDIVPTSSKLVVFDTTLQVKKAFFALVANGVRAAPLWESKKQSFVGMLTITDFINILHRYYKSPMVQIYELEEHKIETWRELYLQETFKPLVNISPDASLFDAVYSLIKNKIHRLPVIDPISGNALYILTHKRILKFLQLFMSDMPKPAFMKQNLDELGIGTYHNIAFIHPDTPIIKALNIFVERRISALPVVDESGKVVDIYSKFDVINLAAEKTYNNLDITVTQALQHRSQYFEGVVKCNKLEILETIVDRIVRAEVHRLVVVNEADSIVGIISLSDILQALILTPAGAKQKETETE
MEASURE NAME: Emax (%)
# value in %; strip the unit string

Q) Dear colleague, I am looking for the recorded Emax of the following compound: COc1ccc(C(O)=C2C(=O)Nc3cc(Cl)c(-c4ccc(C5(CO)CC5)cc4)cc32)c(OC)c1
A) 196

* * *

target: recombinant human AMPK complex, containing α2β1γ2 (Homo sapiens, UniProt P54646+Q9Y478); construct: hsAMPKα2-552-His, hsAMPKβ1-2-270 and hsAMPKγ-2-569 respectively; hsAMPKβ1-2-270; hsAMPKγ-2-569; His (C); assay: AMPK in vitro activation assay (HTRF); conditions: HTRF, recombinant human α2β1γ2 AMPK, 200 μM ATP, biotinylated ACC-CREBp peptide; repeat determinations on separate lines
MEASURE NAME: EC50 (nM)
# value in nM; strip the unit string

Recorded EC50, per entry:
- CPD SMILES: "O=C1Nc2cc(Cl)c(-c3ccc(N4CCOCC4)cc3)cc2C1=C(O)c1cc(Br)no1"
  EC50 / nM: 3
- CPD SMILES: "COc1ccc(C(O)=C2C(=O)Nc3cc(Cl)c(-c4ccc(N5CCOCC5)cc4)cc32)c(F)c1F"
  EC50 / nM: 2
- CPD SMILES: "O=C1Nc2cc(Cl)c(-c3ccc(C4(CO)CC4)cc3)cc2C1=C(O)c1cc2ccccc2o1"
  EC50 / nM: 0.3

Q) Request - read-out EC50 | tested on recombinant human AMPK complex, containing α2β1γ2 (Homo sapiens, UniProt P54646+Q9Y478) | compound O=C1Nc2cc(Cl)c(-c3ccc(N4CCOCC4)cc3)cc2C1=C(O)c1ccccc1
A) 220

* * *

molecular target: recombinant human AMPK complex, containing α2β1γ2 (Homo sapiens, UniProt P54646+Q9Y478); construct: hsAMPKα2-552-His, hsAMPKβ1-2-270 and hsAMPKγ-2-569 respectively; hsAMPKβ1-2-270; hsAMPKγ-2-569; His (C); test: AMPK in vitro activation assay (HTRF); settings: HTRF, recombinant human α2β1γ2 AMPK, 200 μM ATP, biotinylated ACC-CREBp peptide; repeat determinations on separate lines
Structures can show the parent of a compound that is named as a salt.
Measured log10 of EC50 accompanies every entry in the list below.
Values reflect log10 of reported EC50 (nM).

Recorded log10 of EC50, per entry:
- COMPOUND: "Cc1cc(C(O)=C2C(=O)Nc3cc(Cl)c(-c4ccc(OCCCO)cc4)cc32)on1 [Compound 91]"
  log10 of EC50: 0.60
- COMPOUND: "Cc1cc(C(O)=C2C(=O)Nc3cc(Cl)c(-c4ccc(N5CCOCC5)cc4)cc32)on1 [Compound 14]"
  log10 of EC50: 1.58
- COMPOUND: "Cc1cc(C(O)=C2C(=O)Nc3cc(F)c(-c4ccc(C5(CO)CC5)cc4)cc32)on1 [Compound 72]"
  log10 of EC50: 0.30

Q) Dear colleague, I am looking for the recorded log10 of EC50 of the following compound: Cc1cc(C(O)=C2C(=O)Nc3cc(Cl)c(-c4ccc(N5CCN(C)CC5)cc4)cc32)on1 [Compound 74, hydrochloride]
A) 2.05

Q) Field entry: COc1cc(C(O)=C2C(=O)Nc3cc(Cl)c(-c4ccc(C5CCN(C)C5)cc4)cc32)on1 (stereo not shown) [Compound 133, hydrochloride]
A) 1.15

Q) Field entry: Cn1ccc(C(O)=C2C(=O)Nc3cc(Cl)c(-c4ccc(N5CCOCC5)cc4)cc32)n1 [Compound 53]
A) 3.23
